A collection of compounds and their measured LD50 at 336 h
assay: Acute toxicity; conditions: mouse, in vivo, iv; i.v. once, ddY mice, observed 14 days; Behrens-Kaerber's method

# SMILES REPR, LD50 at 336 h
data = [
    ("CO[C@@]12[C@H](COC(N)=O)C3=C(C(=O)C4=C(OC5=C(C4)C(=O)CCC5)C3=O)N1C[C@@H]1N[C@@H]12", "2.2 mg/kg"),
    ("CCC1=C(N)C(=O)C2=C(C1=O)N1C[C@@H]3N[C@@H]3[C@]1(OC)[C@@H]2COC(N)=O", "38 mg/kg"),
    ("CO[C@@]12[C@H](COC(N)=O)C3=C(C(=O)C(CC4=C(O)CC(C)(C)CC4=O)=C(N)C3=O)N1C[C@@H]1N[C@@H]12", "30 mg/kg"),
]

====

assay: Acute toxicity; conditions: mouse, in vivo, iv; i.v. once, ddY mice, observed 14 days; Behrens-Kaerber's method
LD50 at 336 h vs 4 mg/kg: less than gives 1.0; not less than gives 0.0.

# COMPOUND, LABEL VALUE
rows = [
    ("CO[C@@]12[C@H](COC(N)=O)C3=C(C(=O)C(Cc4ccccc4)=C(N)C3=O)N1C[C@@H]1N[C@@H]12 [Compound 7, 6-benzyl-6-demethylmitomycin C]", 0.0),
    ("CCC1=C(OC)C(=O)C2=C(C1=O)N1C[C@@H]3N[C@@H]3[C@]1(OC)[C@@H]2COC(N)=O [Compound 15, 6-demethyl-6-ethylmitomycin A]", 0.0),
    ("CO[C@@]12[C@H](COC(N)=O)C3=C(C(=O)C4=C(OC5=C(C4)C(=O)CC(C)(C)C5)C3=O)N1C[C@@H]1N[C@@H]12 [Compound 13]", 1.0),
    ("CO[C@@]12[C@H](COC(N)=O)C3=C(C(=O)C4=C(OC5=C(C4)C(=O)CC(C)C5)C3=O)N1C[C@@H]1N[C@@H]12 (single isomer, unassigned) [Compound 36]", 0.0),
    ("CCC1=C(OC)C(=O)C2=C(C1=O)N1C[C@H]3[C@H](N3C)[C@]1(O)[C@H]2COC(N)=O (stereo partly drawn) [Compound 16, 6-demethyl-6-ethylmitomycin B]", 0.0),
    ("CCOC(=O)C1=C(C)OC2=C(C1)C(=O)C1=C(C2=O)[C@@H](COC(N)=O)[C@@]2(OC)[C@H]3N[C@H]3CN12 [Compound 12]", 0.0),
]

Each recorded value in this set is attributed to patent US5256685A.
